The measured values listed here are drawn from the supplement of paper PMC10567573.

B1: GOLPH3 (parent)
chain: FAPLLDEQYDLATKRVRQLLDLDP

# Variants of: B1
# assay: protein stability index of a GFP-peptide fusion (GPS, HEK-293T) (PSI 1-6); higher = more stable;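 note: lentivirally expressed fusions sorted by FACS into six bins by GFP to DsRed ratio, PSI derived from sequencing read proportions per bin multiplied by bin number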
# condition_label: c terminus: a fixed tail appended
Below, each entry is listed with its recorded protein stability index.

Solved cases (4 shown):
variant_string: D23P
protein stability index: 1.8
//
variant_string: F1V
protein stability index: 3.06
//
variant_string: D21H
protein stability index: 1.55
//
variant_string: P24M
protein stability index: 2

Please examine the following record next.
Query :: For the variant D6L , what protein stability index is on record?
Result :: 1.83
